- target_entity: SARS-CoV-2 receptor-binding domain (RBD), wild type (SARS-CoV-2, UniProt P0DTC2 331-527)
- run_description: BLI
endpoint: Kd
The answer should read as a number with its unit following.

Examples from the recorded data:
binder	Kd
WNbFc 7 (Fc fusion) QVQLQESGGGLVQPGGSLRLSCAAPGFTFSSYAMGWFRQVPGKGLEWVSGIYSDGSTYYADSVKGRFTISRDNAKNTVYLQMNSLKPEDTAVYYCAKDRLEGSSWPERDFGSWGQGTQVTVSS	0.35 nM
WNbFc 15 (Fc fusion) QVQLQESGGGLVQPGGSLRLSCAASGFTFSSYLMGWFRQVPGKGLEWVSGIYSDGGTYYADSVKGRFTISRDNAKNTVYLQMNSLKPEDTAVYYCATDRMEGSSWPERDFGSWGQGTQVTVSS	0.25 nM
WNb 41 (VHH) VHH: QVQLQESGGGLVQPGGSLRLSCAVSGFTLDYYAIGWFRQAPGKEREGVSCISSSGGSTNYADSVKGRFTISRDNAKNTVYLQMNGLKPEDTAVYYCAAIAATYYSGSYYYQCPHDGMDYWGKGTQVTVSS	0.55 nM
WNb 67 (VHH) VHH: QVQLQESGGGLVQPGGSLRLSCAVSGFTLDYYAIGWFRQAPGKEREGVSCISSSGGSTNYADSVKGRFTISRDNATNTVYLQMNSLKPEDTAVYYCAAIAATYYGGSYYYQCPHYGMDYWGKGTQVTVSS	0.61 nM
WNb 50 (VHH) VHH: QVQLQESGGGLVQPGGSLRLSCAASGFTFSSYAMGWFRQVPGKGLEWVSGIYSDGSTYYADSVKGRFTISRDNAKNTVYLQMNSLKPEDTAVYYCAADRMAGSRWPERDFGSWGQGTQVTVSS	0.63 nM

Now take the following binder into account.
Ask | Endpoint output: Kd of WNb 53 (VHH) VHH: QVQLQESGGGLVQPGGSLRLSCAASGFTFSSYLMGWARQVPGKGLEWVAGIYSDGSTYYADSVKGRFIISRDNAKNTVYLQMNSLKPEDTAVYYCAKDRMEDSTWPERDFGSWGQGTQVTVSS . Value?
Reply | 0.64 nM
